Catalogue of PBM binding z-score values
# System: LXRa:RXRa (NR concentration 270 nM, RXRa partner concentration 90 nM)
# protocol summary: PBM binding z-score (relative to random genomic background probes); higher = stronger binding; sequences stand for … in GC…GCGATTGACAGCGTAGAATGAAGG

monomer sequence	PBM binding z-score
CGAACTAGGTCAAGGACGGTGAATCTCCGCACGC	2.02
CCTAGCAGGTCAGGGTCACTCAAGCATTTCGCTT	3.54
AGAACGAGGGCACGATGAGTTGATAGCAGAGTAG	0.721
AAAATGAGGTTACCAAAGATCAGGGAAACGCTTG	6.37
CGTCCAAGGTCAGCAAGTCAGTGAAAGCGACGTG	3.1
CCTACTTGGCCAAGGTCATTGATCAGTCAAAGCA	4.26
ATCGAAAGGTCGACGAGCTGAGTATACACCGTTT	3.16
CCTGACGGGTCACTCCAGGTTATAGCATCGGAGT	7.46
GCAGACAGGTGCAACGCAGGTAACTCAGGGTGGC	-0.509
CTACCAAGGTGAACAAGTTCGTTGATTACTATTC	0.532
ACTCGGAGGACAAAGGTCTGAGCTACGCCAGTGA	-0.415
CGAGCGAGGGCATGAGTTGATAGCAAATGCCGAT	0.467
CAAACTAGGTCACCGGAAGGTAAAAGTCCGCATG	3.72
TCATATAGGTAAAGGTGAAAGTCGAACGATATGA	1.27
CTCGACAGGTCGTGCTCAGGTGAGTATACCAAAC	0.431
CGTCAAAGTTCAAGGTAACGTAGCAGAAAGCAGC	5.74
ATCTCTAGGTCAGACTCAGTTCAGTGAAGAACGC	3.65
GCTAGTTGGTCAGTAAAAGGTCACTCACCGGTCG	3.91
TCATATAGGTAAACAGGTAAAAGTCCGTAAGTTA	1.14
TCGAGTAGGTTAGGGGCGTTCAGAATGGCGTCGA	0.362
ACTCGGAGGAGAAAGGTCAGAGCTACGCCAGTGA	3.16
TCGAGTAGGTTACCAATGGTGCATTCAGCTTTCT	1.22
CCTACTGGGCCACGAAAGGTCATTCATTCAGTGA	5.43
AGAACGAGGGCAATGAGTTGATATCACGGGTGGC	0.334
TCATATAGGTAATATAGGTGAAAGTCGGCATCTA	1.07
ACAGACAGGTGAGTGAAGGCAACTCAGCTGGACG	-0.412

* * *

# Tested on: FXR:RXRa (NR concentration 270 nM, RXRa partner concentration 90 nM)
# protocol summary: PBM binding z-score (relative to random genomic background probes); higher = stronger binding; sequences stand for … in GC…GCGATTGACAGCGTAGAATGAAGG
The class of a record is decided solely by its measured PBM binding z-score; consult low class (below 0.4), middle class (0.4 to below 3), high class (3 or more)

monomer sequence	study target	label class
GCTCGGAGGTCAAGGTCAGAGCTTTGTCCGTAGA	FXR:RXRa (NR concentration 270 nM, RXRa partner concentration 90 nM)	high class
CCTACTGGGCCAAAAAGCTCATTGATGCCGATAA	FXR:RXRa (NR concentration 270 nM, RXRa partner concentration 90 nM)	low class
CCTCGGAGGACAGATGGTCAGAGCTGTCCGCTTT	FXR:RXRa (NR concentration 270 nM, RXRa partner concentration 90 nM)	low class
TCATATAGGTAAAATGTGAAAGTCGGTGTGGTAA	FXR:RXRa (NR concentration 270 nM, RXRa partner concentration 90 nM)	middle class
CCAGACAGGTGAAAGGTAAGTCAGTCTGGTACGC	FXR:RXRa (NR concentration 270 nM, RXRa partner concentration 90 nM)	low class
AGAATTAGGTTATACGTAGATCAGGGAAGAAAGT	FXR:RXRa (NR concentration 270 nM, RXRa partner concentration 90 nM)	middle class
TCTATTAGTTGACGGGCAACCGACGAGTCCGTTT	FXR:RXRa (NR concentration 270 nM, RXRa partner concentration 90 nM)	middle class
TGAATGAGGTTATATGATCAGGGAACGTTGCAAA	FXR:RXRa (NR concentration 270 nM, RXRa partner concentration 90 nM)	middle class
TCAGACAGGTGAAGGTAACTCTGGTACGCAGTCG	FXR:RXRa (NR concentration 270 nM, RXRa partner concentration 90 nM)	middle class
TCATAAAGGTAAACAGGTGAAAGTCCGTAAGTTA	FXR:RXRa (NR concentration 270 nM, RXRa partner concentration 90 nM)	middle class
ATCGAAAGGTCTTGAGGTGAGTATACAGAAAGGC	FXR:RXRa (NR concentration 270 nM, RXRa partner concentration 90 nM)	low class
CGAACAAGGTCAGAACAGGACAGTGAAGGATGAT	FXR:RXRa (NR concentration 270 nM, RXRa partner concentration 90 nM)	high class
CGAACTCGGTCAGAACAGGACAGTGAAGGATGAT	FXR:RXRa (NR concentration 270 nM, RXRa partner concentration 90 nM)	low class
ATCGAAAGGTCGTGAGGTGCGTATACAGAAAGGC	FXR:RXRa (NR concentration 270 nM, RXRa partner concentration 90 nM)	high class
CCTTACGGGTCACTCCAGGTTATAGTATCGGAGT	FXR:RXRa (NR concentration 270 nM, RXRa partner concentration 90 nM)	high class
CCTATTAGTTGACCATAAGGGCAACCGCAGCTCG	FXR:RXRa (NR concentration 270 nM, RXRa partner concentration 90 nM)	middle class
AGAACGAGGGCAATGAGTTGAGAGCACGGGTGGC	FXR:RXRa (NR concentration 270 nM, RXRa partner concentration 90 nM)	low class
ACCTCTAGGTAACCAAGTTCAGTGAATGCCGAAC	FXR:RXRa (NR concentration 270 nM, RXRa partner concentration 90 nM)	low class
TTAGCAAGGTGAAAGGTCGTTGATGCACGCCTTG	FXR:RXRa (NR concentration 270 nM, RXRa partner concentration 90 nM)	high class
TTACCAAGGTGAAGGTCGTTGAGCCCTCTGTAGA	FXR:RXRa (NR concentration 270 nM, RXRa partner concentration 90 nM)	middle class
CCTACTGGGCCAAAAAGGTCATTGCTGCCGATAA	FXR:RXRa (NR concentration 270 nM, RXRa partner concentration 90 nM)	high class
TCTTGTAGATCAGCACGTTAAGAAAGCTGGCCAA	FXR:RXRa (NR concentration 270 nM, RXRa partner concentration 90 nM)	low class
CAAACTAGGTCAAGGTCAAAGACGGTTTGTGCCA	FXR:RXRa (NR concentration 270 nM, RXRa partner concentration 90 nM)	high class
ATCTCTAGGTAAAAGTTTAGTGAATCCCGAGGAT	FXR:RXRa (NR concentration 270 nM, RXRa partner concentration 90 nM)	low class
CAGCCAAGGTCAGGGCCAGTATAGGAGGAACGTT	FXR:RXRa (NR concentration 270 nM, RXRa partner concentration 90 nM)	high class
TCTTGTAGATCAACAGGAGGTTAAAAAAGATCGA	FXR:RXRa (NR concentration 270 nM, RXRa partner concentration 90 nM)	low class
ATCGAAACGTCGAGGTGAGTATAGAGAAAGGGAA	FXR:RXRa (NR concentration 270 nM, RXRa partner concentration 90 nM)	low class
ATCGAAAGGTCGAGCTGAGTATAGAGAAAGGGAA	FXR:RXRa (NR concentration 270 nM, RXRa partner concentration 90 nM)	high class
CGTCCAAGGTCAAAGTTCAGTGAAGAGATGACGG	FXR:RXRa (NR concentration 270 nM, RXRa partner concentration 90 nM)	high class
TCTCGGAGGACACGAAAGGTCAGCGCTCGACATC	FXR:RXRa (NR concentration 270 nM, RXRa partner concentration 90 nM)	high class
CCGACTGGGGGATAAGGTTACCATAAGCCAGCCC	FXR:RXRa (NR concentration 270 nM, RXRa partner concentration 90 nM)	middle class
TCATATAGGTAAAAGGTGAAAGTGGGTGTGGTAA	FXR:RXRa (NR concentration 270 nM, RXRa partner concentration 90 nM)	middle class
GATACAGGGTCAGCTCGAGGCCAGAGTATGGAAA	FXR:RXRa (NR concentration 270 nM, RXRa partner concentration 90 nM)	high class
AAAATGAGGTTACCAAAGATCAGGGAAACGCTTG	FXR:RXRa (NR concentration 270 nM, RXRa partner concentration 90 nM)	middle class
CAAACTAGGTCAAGAGGTCAAAGTACGCTTCCCG	FXR:RXRa (NR concentration 270 nM, RXRa partner concentration 90 nM)	high class
CCGAGTAGGTTATGGTGCATTCAGGCAACGGTGA	FXR:RXRa (NR concentration 270 nM, RXRa partner concentration 90 nM)	low class
GCAACGAGGGCAAAGTTGATAGCATCTGTCGACG	FXR:RXRa (NR concentration 270 nM, RXRa partner concentration 90 nM)	middle class
AGAATGAGGTTATACGTAGATCTGGGAAGAAAGT	FXR:RXRa (NR concentration 270 nM, RXRa partner concentration 90 nM)	middle class
GCTGCTAGGTCCGGTTGGTCAGCTAACGGGTACG	FXR:RXRa (NR concentration 270 nM, RXRa partner concentration 90 nM)	low class
CGTCCAAGGTCGGCAGGTCAGTGAAAGCGACGTG	FXR:RXRa (NR concentration 270 nM, RXRa partner concentration 90 nM)	middle class
TCGAGTAGGTTAGGGGTATTCAGAATGGCGTCGA	FXR:RXRa (NR concentration 270 nM, RXRa partner concentration 90 nM)	low class
GCATATAAGTAATACAAGGTGAAAGTCCGATTGT	FXR:RXRa (NR concentration 270 nM, RXRa partner concentration 90 nM)	middle class
AGAATGAGGTTAAGATGAGGGAAACAGAATACAT	FXR:RXRa (NR concentration 270 nM, RXRa partner concentration 90 nM)	middle class
CCAGACAGGTGAGAAGGTAACACAGCCTCGATTA	FXR:RXRa (NR concentration 270 nM, RXRa partner concentration 90 nM)	low class
ACTAGCAGGCCAAGGGTCACTCAGGATTAGTCCG	FXR:RXRa (NR concentration 270 nM, RXRa partner concentration 90 nM)	middle class
ACTAGCAGGCCAAGTTTGGTTCACTCAAACAAAG	FXR:RXRa (NR concentration 270 nM, RXRa partner concentration 90 nM)	low class
CAGCCTAGGTCAGGGCCCGTATAGGAGGAACGTT	FXR:RXRa (NR concentration 270 nM, RXRa partner concentration 90 nM)	middle class
CGTTAAAGTTCAACTAAGGTAACGTAAAGCACGC	FXR:RXRa (NR concentration 270 nM, RXRa partner concentration 90 nM)	high class
ATCGAAAGGTCGACGAGGTGTGTATACACCGTTT	FXR:RXRa (NR concentration 270 nM, RXRa partner concentration 90 nM)	high class
GATACAGGGTCAGCTAGAAGCCAGAGTATGGAAA	FXR:RXRa (NR concentration 270 nM, RXRa partner concentration 90 nM)	high class
